The reported measurements were obtained from BindingDB's records for doi:10.1016/j.ejmech.2019.05.014.

Method summary: Inhibition of capsid protein in lamivudine/entecavir-resistant Hepatitis B virus harboring rtL180M/rtM204V/rt184L mutant infected in human HepG2.2.15 cells assessed as reduction in viral DNA level measured after 72 hrs by PCR analysis
Measured property: IC50 (nM)
Number in nM, nothing else.

[[record]]
structure = "CCN(CC)CCOc1ccc2nc(SCc3ccccc3)n(Cc3cccs3)c(=O)c2c1"
measured_property = "IC50"
assay_value = 840


The value of IC50 measured for the compound "CN(C)CCOc1ccc2nc(SCc3ccccc3)n(Cc3cccs3)c(=O)c2c1" turned out to be 1900

----------
Method summary: Inhibition of capsid protein in Hepatitis B virus infected in human HepG2.2.15 cells assessed as reduction in viral DNA level at 4 uM supplemented with fresh medium containing compound every 2 days and measured after 6 days by RT-PCR analysis
Reported pIC50 values follow for various compounds
Note on units: pIC50 is unitless, being -log10 of a concentration expressed in mol/L.

Observe how each entry below is paired with its result.
[[record]]
structure = "CCN(CC)CCOc1ccc2nc(SCc3ccccc3OC)n(Cc3cccs3)c(=O)c2c1"
assay_value = 5.71

[[record]]
structure = "CN(C)CCOc1ccc2nc(SCc3ccccc3)n(Cc3cccs3)c(=O)c2c1"
assay_value = 5.81

[[record]]
structure = "CCN(CC)CCOc1ccc2nc(SCc3ccccc3)n(Cc3cccs3)c(=O)c2c1"
assay_value = 6.15

[[record]]
structure = "COc1ccccc1CSc1nc2ccccc2c(=O)n1Cc1cccs1"
assay_value = 5.55

[[record]]
structure = "COc1ccccc1CSc1nc2ccc(F)cc2c(=O)n1Cc1cccs1"
assay_value = 5.61


// next item, pIC50 requested
The value of pIC50 measured for the compound "COc1ccc(C(C)=O)cc1CSc1nc2ccccc2c(=O)n1Cc1cccs1" turned out to be 5.39
